- method_summary: yeast display, Sf9 membrane polyspecificity reagent, FACS + sequencing; frameworks hold sequencing errors
reported_property: polyreactivity (PSR sort gate)

These recorded examples may help you get a feel for the data.
Query block: Would you kindly share the measured polyreactivity (PSR sort gate) for QVQLVESGGGLVQAGGSLRLSCAASGSTYNNAMGWYRQAPGKERELVAAIRWSGGSTYYADSVKGRFTISRDNAKNTVYLQMNSLKPEDTAVYYCAARYRWSRKRYNDYDYWGQGTQVTVSS ?
Result block: high polyreactivity

Query block: Same lookup for QVQLVESGGGLVQAGGSLRLSCASSGFIFPLYAMGWYRKAPGKERELVAAITWRGDTTSYADSVKGRFTISRDNAKNTVYLLMIRLKPEDNAVYYCNARGYFGWYAMDYWGQGTQVTVSS , please.
Result block: high polyreactivity

Query block: Same lookup for QGQRVESGGGLVQAGGSLRLSCAASGLIFSRYGMGWYRPARGKDRELVAAISGGGGSTYYADSVKGRFTISRDNAKNTVYLEMNSLKPEDTAVYYCARKYTRKIPASDYWGQGTQVTVSS , please.
Result block: high polyreactivity

Query block: Same lookup for QVQLVESGGGLVQAGGSLRISCADSGITYSANAMGWYRQAPGKERELVAAITGSGGGTYYADSVKGRFTISRDNAKNTVYLQMNSLKPEDTAVYYCKADNYYYSGFDYWGQGTQVTVSS , please.
Result block: low polyreactivity

More entries:
Query block: Would you kindly share the measured polyreactivity (PSR sort gate) for QVQLVESGGGLVQAGGSLRLSCAASGRIFSGNAMGWYRQAPGKERELVAAISGSGGSTYYADSVKGRFTISRDNAKNTVYLQMNSLKPEDTAVYYCADRYTVRRSGYWGQGTQVTVSS ?
Result block: high polyreactivity

Query block: Same lookup for QLQLVESGGGLVQAGGSLRLSCAASGSTFNYNAMGWYRQAPGKEREFVAAISRSGGSTSYADSVKGRFTISRDNAKNTVYLQMNSLKPEDTAVYYCAAYYRKTGYDYWGQGTQVTVSS , please.
Result block: high polyreactivity

Query block: Same lookup for QVQLVESGGGLVQAGGSLRLSCAASGRTFGAYTMGWYRQAPGKERELVAAINWSGGDTYYADSVKGRFTISRDNAKNTVYLQMNSLKPEDTAVYYCNAEPRYGTYDYWGQGTQVTVSS , please.
Result block: low polyreactivity

Query block: Same lookup for QFQLVESGVVLVQAAASLRLSCAASGIIFQRNDMGWNRQAPGKETDLVANIRDGGITNADSVKGRFTISRDNAKNTVYLQMNCLKPEDTAVYYCARDDTSPGYGDQSSNAAYYYWGQGTQVTVSS , please.
Result block: low polyreactivity

Query block: Same lookup for QVQLVESGGGLVQAGGSLRLSCAASGRILPWYAMGWYRQAPGKERELAARIRSTDSTNYADSVKGRFTISRDNAKNTVYLQMNSLKPEDTAVYYCAKVQWGFPYAWLGSDYWGQGTQVTVSS , please.
Result block: low polyreactivity

Query block: Same lookup for QVQLVESGGGLVQAGGSLRLSCAASGRIFYRYAMGWYRQAPGKERELVASISGSGGRTYYADSVKGRFTISRDNAKNTVYLQMNSLKPEDTAVYYCAARIRPSYDWGQGTQVTVSS , please.
Result block: high polyreactivity

Query block: Same lookup for QVQLVESGGGLVQAGGSLLISCAASGRIFYYNTMGWSRQEPGKESELVAAITTNGGSTYYADSVKGRFTISRDNAKITVYLQMNSLNPEDTAVYYCNRDRYPYYSAYNYWGQGTQVTVSS , please.
Result block: low polyreactivity

Reference source: the nanobody polyreactivity screen of Harvey et al. (2022)
